- Measurement target: CK1α (Homo sapiens, UniProt P48729+Q96SW2)
- Sequence (P48729 whole entry, one chain of several): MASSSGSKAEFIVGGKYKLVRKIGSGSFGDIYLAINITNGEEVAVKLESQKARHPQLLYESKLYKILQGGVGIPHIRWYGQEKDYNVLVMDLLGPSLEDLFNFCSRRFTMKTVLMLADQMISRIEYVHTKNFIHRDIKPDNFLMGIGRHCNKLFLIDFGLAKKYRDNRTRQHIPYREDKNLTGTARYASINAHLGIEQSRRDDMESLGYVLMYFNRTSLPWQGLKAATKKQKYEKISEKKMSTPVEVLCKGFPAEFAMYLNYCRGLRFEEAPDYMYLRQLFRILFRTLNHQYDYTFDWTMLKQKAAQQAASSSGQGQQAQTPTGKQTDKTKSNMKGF
- Test name: ePL degradation assay, MDS-L/CK1α ePL OE_GSPT1G575N OE cells
- Condition details: degradation, 4 hr incubation, top conc 10 uM, N ≥ 3, read-out: CK1a EC50
pEC50: −log10 of the molar value.
Readout kind: pEC50

O=C1CCC(N2Cc3c(cccc3[C@H]3C[C@@]3(C(=O)OCC(Cl)(Cl)Cl)c3ccc(Br)cc3)C2=O)C(=O)N1 (stereo partly drawn) [Compound 13b]
< 5.00

Reported pEC50 for O=C1CCC(N2Cc3cc(C4=C[C@]4(C(=O)OCC(Cl)(Cl)Cl)c4ccc(Br)cc4)ccc3C2=O)C(=O)N1 (stereo partly drawn) [Compound 21a] : what is it?
< 5.00

Same question for O=C1CCC(N2Cc3cc([C@@H]4C[C@]4(C(=O)OCC(Cl)(Cl)Cl)c4ccc(Br)cc4)ccc3C2=O)C(=O)N1 (stereo partly drawn) [Compound 15a] please.
< 5.00

* * *

- Measurement target: SALL4 (Homo sapiens, UniProt Q96SW2+Q9UJQ4)
- Construct: endogenous in cells; host or cells: NCCIT (HiBiT knock-in)
- Sequence (Q9UJQ4 whole entry): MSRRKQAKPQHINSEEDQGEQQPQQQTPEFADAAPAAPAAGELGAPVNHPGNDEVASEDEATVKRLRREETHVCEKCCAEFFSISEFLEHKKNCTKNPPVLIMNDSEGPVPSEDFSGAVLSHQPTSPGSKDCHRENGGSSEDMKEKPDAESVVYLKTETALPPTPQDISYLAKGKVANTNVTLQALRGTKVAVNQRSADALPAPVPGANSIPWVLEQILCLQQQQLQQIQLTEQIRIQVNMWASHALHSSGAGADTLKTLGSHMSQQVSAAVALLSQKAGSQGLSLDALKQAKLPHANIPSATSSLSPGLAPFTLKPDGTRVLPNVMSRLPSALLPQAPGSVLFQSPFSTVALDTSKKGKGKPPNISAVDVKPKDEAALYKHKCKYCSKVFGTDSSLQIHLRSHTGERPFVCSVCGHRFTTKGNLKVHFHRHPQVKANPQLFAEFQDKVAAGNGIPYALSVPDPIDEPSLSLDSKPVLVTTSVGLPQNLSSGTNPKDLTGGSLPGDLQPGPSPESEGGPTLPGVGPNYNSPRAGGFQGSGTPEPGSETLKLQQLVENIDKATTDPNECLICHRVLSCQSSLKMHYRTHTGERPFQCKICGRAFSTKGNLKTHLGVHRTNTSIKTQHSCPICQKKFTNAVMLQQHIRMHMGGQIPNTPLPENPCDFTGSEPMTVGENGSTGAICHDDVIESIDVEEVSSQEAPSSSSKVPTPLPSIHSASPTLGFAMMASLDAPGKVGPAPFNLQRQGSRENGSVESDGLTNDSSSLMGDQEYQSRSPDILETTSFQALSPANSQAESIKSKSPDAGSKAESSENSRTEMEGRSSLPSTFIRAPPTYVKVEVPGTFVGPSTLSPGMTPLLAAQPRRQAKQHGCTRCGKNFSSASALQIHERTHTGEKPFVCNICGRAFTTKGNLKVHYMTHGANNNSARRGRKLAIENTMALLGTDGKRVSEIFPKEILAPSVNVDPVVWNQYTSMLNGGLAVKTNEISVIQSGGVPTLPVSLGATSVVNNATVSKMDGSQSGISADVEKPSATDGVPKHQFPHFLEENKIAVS
- Sequence (Q96SW2 whole entry): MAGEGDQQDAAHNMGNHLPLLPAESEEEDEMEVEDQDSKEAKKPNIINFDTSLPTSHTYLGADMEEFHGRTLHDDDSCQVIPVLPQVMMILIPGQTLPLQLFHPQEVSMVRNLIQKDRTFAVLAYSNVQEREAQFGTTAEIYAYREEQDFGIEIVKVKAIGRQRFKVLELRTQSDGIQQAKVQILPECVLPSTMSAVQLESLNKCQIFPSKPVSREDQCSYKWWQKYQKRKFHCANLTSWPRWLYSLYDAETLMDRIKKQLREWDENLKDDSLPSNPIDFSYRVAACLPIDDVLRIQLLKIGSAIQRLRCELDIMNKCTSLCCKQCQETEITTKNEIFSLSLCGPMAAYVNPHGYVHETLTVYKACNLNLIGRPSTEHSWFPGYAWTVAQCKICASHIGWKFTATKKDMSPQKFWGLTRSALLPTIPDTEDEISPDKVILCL
- Sequence (Q16531 whole entry partner): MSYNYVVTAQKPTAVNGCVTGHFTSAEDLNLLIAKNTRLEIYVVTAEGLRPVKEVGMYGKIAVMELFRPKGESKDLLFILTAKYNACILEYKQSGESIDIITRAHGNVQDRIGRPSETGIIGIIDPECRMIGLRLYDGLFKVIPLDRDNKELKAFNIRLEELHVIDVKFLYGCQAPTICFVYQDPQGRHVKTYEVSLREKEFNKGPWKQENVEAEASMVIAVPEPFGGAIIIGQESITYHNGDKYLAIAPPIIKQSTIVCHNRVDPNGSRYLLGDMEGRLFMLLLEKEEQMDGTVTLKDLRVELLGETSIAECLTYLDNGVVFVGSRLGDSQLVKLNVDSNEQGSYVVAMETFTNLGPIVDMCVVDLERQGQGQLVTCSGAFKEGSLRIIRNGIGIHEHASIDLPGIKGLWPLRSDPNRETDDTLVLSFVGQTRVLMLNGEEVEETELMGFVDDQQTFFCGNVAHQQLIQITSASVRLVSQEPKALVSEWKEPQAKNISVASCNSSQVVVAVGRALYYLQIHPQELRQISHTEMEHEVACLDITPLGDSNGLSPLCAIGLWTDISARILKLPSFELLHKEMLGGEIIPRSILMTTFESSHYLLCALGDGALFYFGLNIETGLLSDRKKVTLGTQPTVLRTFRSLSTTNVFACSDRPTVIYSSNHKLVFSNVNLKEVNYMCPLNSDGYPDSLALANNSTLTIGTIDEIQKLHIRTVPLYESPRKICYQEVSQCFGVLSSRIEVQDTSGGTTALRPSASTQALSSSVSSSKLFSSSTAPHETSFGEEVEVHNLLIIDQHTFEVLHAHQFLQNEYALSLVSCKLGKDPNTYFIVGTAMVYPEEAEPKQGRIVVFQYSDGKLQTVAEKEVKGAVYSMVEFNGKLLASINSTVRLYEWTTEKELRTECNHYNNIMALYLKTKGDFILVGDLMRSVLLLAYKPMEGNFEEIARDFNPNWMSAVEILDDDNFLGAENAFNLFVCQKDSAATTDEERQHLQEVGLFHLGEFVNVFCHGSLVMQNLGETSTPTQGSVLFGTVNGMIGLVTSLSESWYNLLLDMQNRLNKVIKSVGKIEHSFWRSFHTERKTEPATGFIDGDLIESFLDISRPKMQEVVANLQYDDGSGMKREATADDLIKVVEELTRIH
- Test name: HiBiT degradation assay, NCCIT/SALL4-HiBiT KI cells
- Assay type: cell-based
- Condition details: depth of degradation (100% = no reduction, 0% = complete degradation), 2 hr, N ≥ 3
Hi all, reminder that labels come from SALL4 Ymin, split as low bracket = under 60%, middle bracket = from 60% up to 80%, high bracket = 80% and over

For orientation, consider the following solved cases.
O=C1CCC(N2C(=O)c3ccc(C4=C[C@@]4(C(=O)OCC(Cl)(Cl)Cl)c4ccc(Br)cc4)cc3C2=O)C(=O)N1 (stereo partly shown) [Compound 22b]
low bracket
O=C1CCC(N2Cc3c(cccc3C3=C[C@@]3(C(=O)OCC(Cl)(Cl)Cl)c3ccc(Br)cc3)C2=O)C(=O)N1 (stereo partly shown) [Compound 19b]
low bracket
O=C1CCC(N2Cc3c(cccc3[C@H]3C[C@@]3(C(=O)OCC(Cl)(Cl)Cl)c3ccc(Br)cc3)C2=O)C(=O)N1 (stereo partly shown) [Compound 13b]
high bracket
O=C1CCC(N2Cc3c(cccc3C3=C[C@]3(C(=O)OCC(Cl)(Cl)Cl)c3ccc(Br)cc3)C2=O)C(=O)N1 (stereo partly shown) [Compound 19a]
low bracket
O=C1CCC(N2Cc3cc([C@@H]4C[C@]4(C(=O)OCC(Cl)(Cl)Cl)c4ccc(Br)cc4)ccc3C2=O)C(=O)N1 (stereo partly shown) [Compound 15a]
high bracket
O=C1CCC(N2C(=O)c3ccc(C4=C[C@]4(C(=O)OCC(Cl)(Cl)Cl)c4ccc(Br)cc4)cc3C2=O)C(=O)N1 (stereo partly shown) [Compound 22a]
middle bracket

# classify by SALL4 Ymin band: O=C1CCC(N2Cc3ccc(C4=C[C@@]4(C(=O)OCC(Cl)(Cl)Cl)c4ccc(Br)cc4)cc3C2=O)C(=O)N1 (stereo partly shown) [Compound 23b]
high bracket

Same question for O=C1CCC(N2Cc3cccc([C@H]4C[C@@]4(C(=O)OCC(Cl)(Cl)Cl)c4ccc(Br)cc4)c3C2=O)C(=O)N1 (stereo partly shown) [Compound 18b] please.
high bracket

Same question for O=C1CCC(N2C(=O)c3cccc(C4=C[C@]4(C(=O)OCC(Cl)(Cl)Cl)c4ccc(Br)cc4)c3C2=O)C(=O)N1 (stereo partly shown) [Compound 20a] please.
low bracket

Same question for O=C1CCC(N2Cc3cc(C4=C[C@@]4(C(=O)OCC(Cl)(Cl)Cl)c4ccc(Br)cc4)ccc3C2=O)C(=O)N1 (stereo partly shown) [Compound 21b] please.
middle bracket

Same question for O=C1CCC(N2Cc3cc([C@H]4C[C@@]4(C(=O)OCC(Cl)(Cl)Cl)c4ccc(Br)cc4)ccc3C2=O)C(=O)N1 (stereo partly shown) [Compound 15b] please.
middle bracket

Same question for O=C1CCC(N2Cc3c(cccc3[C@@H]3C[C@]3(C(=O)OCC(Cl)(Cl)Cl)c3ccc(Br)cc3)C2=O)C(=O)N1 (stereo partly shown) [Compound 13a] please.
high bracket
